- System: Bacillus spizizenii
- Experiment Summary: Antibacterial activity against Bacillus subtilis ATCC 6633 by micro broth dilution method
- Format: functional
Mark condition met only when MIC stays strictly below 8 mg/L. Values equal to the cut-off are condition not met.

Worked set:
Compound: O=C(O)c1cn(C2CC2)c2cc(N3CCN(Cc4nc5ccccc5n4Cc4ccc([N+](=O)[O-])cc4)CC3)c(F)cc2c1=O
Class: condition met

Compound: CCn1cc(C(=O)O)c(=O)c2cc(F)c(N3CCN(Cc4nc5ccccc5n4CC)CC3)cc21
Class: condition met

Compound: CCn1cc(C(=O)O)c(=O)c2cc(F)c(N3CCN(Cc4nc5ccccc5n4Cc4cccc(F)c4)CC3)cc21
Class: condition not met

Compound: CCCCCn1c(CN2CCN(c3cc4c(cc3F)c(=O)c(C(=O)O)cn4CC)CC2)nc2ccccc21
Class: condition not met

Compound: CCCn1c(CN2CCN(c3cc4c(cc3F)c(=O)c(C(=O)O)cn4C3CC3)CC2)nc2ccccc21
Class: condition not met

Report whether reported MIC is lower than 8 mg/L (strictly) for COC(=O)c1cn(C2CC2)c2cc(N3CCN(/C=N\c4nc5ccccc5[nH]4)CC3)c(F)cc2c1=O condition met

Report whether reported MIC is lower than 8 mg/L (strictly) for CCCCCCCCCCCCn1c(CN2CCN(c3cc4c(cc3F)c(=O)c(C(=O)O)cn4C3CC3)CC2)nc2ccccc21 condition met

Report whether reported MIC is lower than 8 mg/L (strictly) for O=C(O)c1cn(C2CC2)c2cc(N3CCNCC3)c(F)cc2c1=O condition met

Report whether reported MIC is lower than 8 mg/L (strictly) for CCCn1c(CN2CCN(c3cc4c(cc3F)c(=O)c(C(=O)O)cn4CC)CC2)nc2ccccc21 condition met

Report whether reported MIC is lower than 8 mg/L (strictly) for O=C(O)c1cn(C2CC2)c2cc(N3CCN(Cc4nc5ccc(Cl)cc5[nH]4)CC3)c(F)cc2c1=O condition met

The values you see were collected from ChEMBL document CHEMBL3769303.
